The reported measurements were obtained from patent US20260209220A1.

- tested_system: hM4 receptors (Homo sapiens, UniProt P08173)
- Sequence (P08173 1-479): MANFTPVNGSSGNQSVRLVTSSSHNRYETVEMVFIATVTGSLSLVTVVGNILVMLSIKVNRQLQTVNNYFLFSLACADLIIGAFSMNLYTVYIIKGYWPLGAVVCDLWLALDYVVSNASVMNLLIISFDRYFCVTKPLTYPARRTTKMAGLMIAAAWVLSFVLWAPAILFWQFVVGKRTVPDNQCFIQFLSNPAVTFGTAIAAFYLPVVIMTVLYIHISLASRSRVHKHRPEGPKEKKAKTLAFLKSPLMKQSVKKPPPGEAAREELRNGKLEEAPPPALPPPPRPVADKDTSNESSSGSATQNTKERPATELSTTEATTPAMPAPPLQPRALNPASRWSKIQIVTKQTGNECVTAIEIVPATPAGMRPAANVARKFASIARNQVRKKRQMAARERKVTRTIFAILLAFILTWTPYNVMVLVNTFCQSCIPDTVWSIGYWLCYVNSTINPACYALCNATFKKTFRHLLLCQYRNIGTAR
- procedure_summary: Human M4 PAM PERK assay (CHO cells, TR-FRET, with EC20 acetylcholine)
pEC50: −log10 of the molar value.
Consider the following compounds and their measured pEC50 readings.

Recorded results for 6 compounds are shown here.
> print(dat)
                                   compound  recorded.value
1  Cc1cc(=O)n(C)c2c1[C@@H](C)N(C(=O)CC1CN(c3ccc(C(F)(F)F)cc3)C1)C2 [Compound I-117]    6.00 to 6.70
2  Cc1cc2c(n(C)c1=O)CN(C(=O)CC1CN(c3ccnc(C(F)(F)F)c3)C1)C2 [Compound I-112]    6.70 to 7.30
3  Cc1c2c(n(C)c(=O)c1C)CN(C(=O)CC1CN(c3ccc(F)c(C(F)(F)F)c3)C1)C2 [Compound I-49]    6.70 to 7.30
4  Cc1cc(=O)n(C)c2c1CN(C(=O)CC1CN(c3cnnc(C4CC4)c3)C1)C2 [Compound I-38]    6.70 to 7.30
5  CCc1c(C)c2c(n(C)c1=O)CN(C(=O)CC1CN(c3ccnc(C(F)(F)F)c3)C1)C2 [Compound I-107]    6.70 to 7.30
6  Cc1cc(=O)n(C)c2c1CN(C(=O)CC1CN(c3ccnc(C4CC4)n3)C1)C2 [Compound I-24]    6.70 to 7.30

**Query** Given Cc1c2c(n(C)c(=O)c1C)CN(C(=O)CC1CN(c3ccc(F)c(OC4CC4)c3)C1)C2 [Compound I-63] , state its recorded pEC50.
**Result** 6.00 to 6.70

**Query** Given Cc1cc(=O)n(C)c2c1CN(C(=O)CC1CN(c3ccncn3)C1)C2 [Compound I-6] , state its recorded pEC50.
**Result** 6.00 to 6.70

**Query** Given CSc1c2c(n(C)c(=O)c1C)CN(C(=O)CC1CN(c3ccnc(C(F)(F)F)c3)C1)C2 [Compound I-104] , state its recorded pEC50.
**Result** 6.00 to 6.70

**Query** Given Cc1c2c(n(C)c(=O)c1C#N)CN(C(=O)CC1CN(c3ccnc(C(F)(F)F)c3)C1)C2 [Compound I-111] , state its recorded pEC50.
**Result** 6.70 to 7.30

**Query** Given Cc1cc(=O)n(C)c2c1[C@H](C)N(C(=O)CC1CN(c3ccc(C(F)(F)F)cc3)C1)C2 [Compound I-116] , state its recorded pEC50.
**Result** < 6.00

**Query** Given Cc1c2c(n(C)c(=O)c1C1CC1)CN(C(=O)CC1CN(c3ccnc(C(F)(F)F)c3)C1)C2 [Compound I-109] , state its recorded pEC50.
**Result** 6.70 to 7.30

**Query** Given Cc1cc(=O)n(C)c2c1CN(C(=O)CC1CN(c3cc(C4CC4)c(C#N)c(C(F)(F)F)c3)C1)C2 [Compound I-40] , state its recorded pEC50.
**Result** 6.00 to 6.70

**Query** Given Cc1c2c(n(C)c(=O)c1F)CN(C(=O)CC1CN(c3cccc(C(F)(F)F)c3F)C1)C2 [Compound I-86] , state its recorded pEC50.
**Result** 6.00 to 6.70

**Query** Given Cc1cc(=O)n(C)c2c1CN(C(=O)CC1CN(c3nc(C(F)(F)F)cs3)C1)C2 [Compound I-31] , state its recorded pEC50.
**Result** 6.70 to 7.30

**Query** Given Cc1c2c(n(C)c(=O)c1F)CN(C(=O)CC1CN(c3ccc(C(F)(F)F)cc3)C1)C2 [Compound I-85] , state its recorded pEC50.
**Result** 6.70 to 7.30

**Query** Given Cc1cc(=O)n(C)c2c1CN(C(=O)CC1CN(c3ccccn3)C1)C2 [Compound I-9] , state its recorded pEC50.
**Result** > 7.30

**Query** Given Cc1c2c(n(C)c(=O)c1C)CN(C(=O)CC1CN(c3ccc(C4CC4)c(F)c3)C1C)C2 (single isomer, unassigned) [Compound I-62] , state its recorded pEC50.
**Result** 6.00 to 6.70

**Query** Given Cc1c2c(n(C)c(=O)c1C)CN(C(=O)CC1CN(c3cnc(C(F)(F)F)cn3)C1)C2 [Compound I-50] , state its recorded pEC50.
**Result** 6.00 to 6.70

**Query** Given Cc1cc(=O)n(CC2CC2)c2c1CN(C(=O)CC1CN(c3ccnc(C(F)(F)F)c3)C1)C2 [Compound I-101] , state its recorded pEC50.
**Result** 6.00 to 6.70

**Query** Given Cc1cc(=O)n(C)c2c1CN(C(=O)CC1CN(c3ccc(F)c(F)c3)C1)C2 [Compound I-32] , state its recorded pEC50.
**Result** 6.70 to 7.30

**Query** Given Cc1c2c(n(C)c(=O)c1F)CN(C(=O)CC1CN(c3cnc(C(F)(F)F)cn3)C1)C2 [Compound I-90] , state its recorded pEC50.
**Result** 6.00 to 6.70

**Query** Given Cc1c2c(n(C)c(=O)c1F)CN(C(=O)CC1CN(c3cccc(F)c3F)C1)C2 [Compound I-87] , state its recorded pEC50.
**Result** > 7.30

**Query** Given Cc1cc(=O)n(C)c2c1CN(C(=O)CC1CN(c3cnn(C(F)(F)F)c3)C1)C2 [Compound I-34] , state its recorded pEC50.
**Result** < 6.00

**Query** Given Cc1cc(=O)n(C)c2c1CN(C(=O)CC1CN(c3ncc(C(F)(F)F)s3)C1)C2 [Compound I-29] , state its recorded pEC50.
**Result** 6.70 to 7.30

**Query** Given Cc1cc(=O)n(C2CC2)c2c1CN(C(=O)CC1CN(c3ccnc(C(F)(F)F)c3)C1)C2 [Compound I-103] , state its recorded pEC50.
**Result** 6.00 to 6.70

**Query** Given Cc1cc(=O)n(C)c2c1CN(C(=O)CC1CN(c3ccnc(OCC4CC4)c3)C1)C2 [Compound I-10] , state its recorded pEC50.
**Result** > 7.30

**Query** Given Cc1cc(=O)n(C)c2c1CN(C(=O)CC1CN(c3cccc(C#N)c3)C1)C2 [Compound I-25] , state its recorded pEC50.
**Result** 6.70 to 7.30
